Where these numbers come from: patent US7375083B2

Test: Oral bioavailability of hydrocodone conjugates in rats, LC/MS/MS
Conditions: oral, 1 mg/kg dose, 0.5 Hours
Where a SMILES comes first, the peptide text is derived from it. The star is where a group is joined. X1 = COc1ccc2c3c1O[C@H]1C(O*)=CC[C@H]4[C@@H](C2)N(C)CC[C@]314
The reader will find reported hydrocodone plus hydromorphone concentration values listed item by item below.
Result Type: hydrocodone plus hydromorphone concentration (ng/mL)

| Molecule | Endpoint Value |
| --- | --- |
| CC[C@H](C)[C@H](NC(=O)[C@H](Cc1ccccc1)NC(=O)[C@H](Cc1ccccc1)NC(=O)[C@H](CCC(=O)O)NC(=O)[C@@H](N)CCC(=O)O)C(=O)OC1=CC[C@H]2[C@H]3Cc4ccc(OC)c5c4[C@@]2(CCN3C)[C@H]1O5 [EEFFI[SEQ ID NO: 5]-HC] (H-EEFFI-X1) | 12.9 |
| CC[C@H](C)[C@H](NC(=O)[C@H](Cc1ccccc1)NC(=O)[C@H](Cc1ccccc1)NC(=O)[C@H](Cc1ccc(O)cc1)NC(=O)[C@@H](N)Cc1ccc(O)cc1)C(=O)OC1=CC[C@H]2[C@H]3Cc4ccc(OC)c5c4[C@@]2(CCN3C)[C@H]1O5 [YYFFI[SEQ ID NO: 8]-HC] (H-YYFFI-X1) | 7 |
| CC[C@H](C)[C@H](NC(=O)[C@H](Cc1ccc(O)cc1)NC(=O)[C@@H](N)Cc1ccc(O)cc1)C(=O)OC1=CC[C@H]2[C@H]3Cc4ccc(OC)c5c4[C@@]2(CCN3C)[C@H]1O5 [YYI-HC, Tyr-Tyr-Ile-Hydrocodone] | 9.2 |
| COc1ccc2c3c1O[C@H]1C(OC(=O)[C@H](Cc4ccccc4)NC(=O)[C@H](Cc4ccccc4)NC(=O)[C@H](Cc4ccccc4)NC(=O)[C@H](CCC(=O)O)NC(=O)[C@@H](N)CCC(=O)O)=CC[C@H]4[C@@H](C2)N(C)CC[C@]314 [EEFFF[SEQ ID NO: 3]-HC] (H-EEFFF-X1) | 11.3 |
| CC[C@H](C)[C@H](NC(=O)[C@H](CC(=O)O)NC(=O)[C@@H](N)CC(=O)O)C(=O)OC1=CC[C@H]2[C@H]3Cc4ccc(OC)c5c4[C@@]2(CCN3C)[C@H]1O5 [DDI-HC, Asp-Asp-Ile-Hydrocodone] | 14.9 |
